Here, each record is paired with measured Pigweed plant response rating data.
Test system: pigweed (Amaranthus retroflexus)
Assay: Test A greenhouse herbicide test, pre- and postemergence
Assay type: in vivo
Condition Set: Preemergence, 125 g ai/ha; 0 to 100 scale where 0 is no effect and 100 is complete control
# respond with the number and nothing more

[
  {
    "Molecule": "Cc1ccc2oc(C)c(-c3c(O)c(-c4ccccc4)nn(C)c3=O)c2c1 [Compound 61]",
    "Pigweed plant response rating": 0
  },
  {
    "Molecule": "COc1ccc(-c2c(O)c(C)nn(C)c2=O)c2ccccc12 [Compound 58]",
    "Pigweed plant response rating": 0
  },
  {
    "Molecule": "Cc1ccc2oc(C)c(-c3c(O)c(C(C)C)nn(C)c3=O)c2c1 [Compound 119]",
    "Pigweed plant response rating": 0
  }
]

Proceeding to the next molecule to report its Pigweed plant response rating.
[Q] Consider the molecule shown here: CCCC(=O)Oc1c(C)nn(C)c(=O)c1-c1c(C)sc2ccc(C)cc12 [Compound 105] What is its recorded Pigweed plant response rating?
[A] 100

###

Test system: pigweed (Amaranthus retroflexus)
Assay: Test A greenhouse herbicide test, pre- and postemergence
Format: in vivo
Condition Set: Postemergence, 500 g ai/ha; 0 to 100 scale, 0 is no effect, 100 is complete control
Readout Label: Pigweed plant response rating
Format: numeric value only, no unit, no commentary.

The examples below pair each entry with its known result.
[
  {
    "Query Smiles": "Cc1nn(C)c(=O)c(-c2c(C)n(C)c3ccc(Cl)cc23)c1O",
    "Pigweed plant response rating": 50
  },
  {
    "Query Smiles": "Cc1nn(C)c(=O)c(-c2c(C)sc3c(C)cc(Cl)cc23)c1O",
    "Pigweed plant response rating": 90
  }
]

# context switch: different compound, same Pigweed plant response rating
[Q] Entry CCc1sc2c(C)cc(C)cc2c1-c1c(O)c(C)nn(C)c1=O has what Pigweed plant response rating?
[A] 100

###

Tested on: ragweed (common ragweed, Ambrosia elatior)
Assay: Test A greenhouse herbicide test, pre- and postemergence
Assay type: in vivo
Condition Set: Preemergence, 500 g ai/ha; 0 to 100 scale, 0 no effect, 100 complete control
Plant response rating, Ragweed: recorded values

# example entries with known answers
[
  {
    "Query Smiles": "CCc1sc2c(C)cc(C)cc2c1-c1c(O)c(C)nn(C)c1=O",
    "Plant response rating, Ragweed": 100
  },
  {
    "Query Smiles": "Cc1cc(C)c2ccccc2c1-c1c(O)c(C)nn(C)c1=O",
    "Plant response rating, Ragweed": 100
  }
]

# evaluate next
[Q] // lookup Plant response rating, Ragweed for COC(=O)Oc1c(C)nn(C)c(=O)c1-c1ccc(Cl)c2ccccc12
[A] 90

###

Reported Plant response rating, Kochia by item:
Tested on: kochia (Kochia scoparia)
Assay: Test D controlled growth environment herbicide test, pre- and postemergence
Assay type: in vivo
Condition Set: Preemergence, 125 g ai/ha; scale 0 to 100 (0 no effect, 100 complete control)

[
  {
    "Query Smiles": "CCc1sc2c(C)cc(C)cc2c1-c1c(O)c(C)nn(C)c1=O",
    "Reading": 35
  }
]

[Q] Given Cc1nn(C)c(=O)c(-c2c(C)sc3ccc(Br)cc23)c1O , state its recorded Plant response rating, Kochia.
[A] 50

[Q] Could you share which Plant response rating, Kochia value was measured for Cc1cc2ccccc2c(-c2c(O)c(C)nn(C)c2=O)c1C ?
[A] 15
